- ASSAY EXPLANATION: In vivo distribution-metabolism in ocular tissues of rabbits
- PARTICULARS: rabbit, aqueous humor, topical or ocular, 1 %, Concentration of propranolol
ASSAY READOUT: concentration at 0.5 h

Prompt line: Returns the measured concentration at 0.5 h for the input compound. Input: CC(C)NCC(O)COc1cccc2ccccc12 (stereo not shown)
Response line: 1280 ng/g

---

- ASSAY EXPLANATION: In vivo distribution-metabolism in ocular tissues of rabbits
- PARTICULARS: rabbit, aqueous humor, topical or ocular, 1 %, Concentration of propranolol
ASSAY READOUT: concentration at 1 h (ng/g)
Only the number, expressed in ng/g, is required.

Prompt line: Returns the measured concentration at 1 h for the input compound. Input: CC(C)NCC(O)COc1cccc2ccccc12 (stereo not shown)
Response line: 260
